ASSAYED SYSTEM: MSI1 full-length (mouse, UniProt Q61474 1-362)
Sequence (Q61474 whole entry): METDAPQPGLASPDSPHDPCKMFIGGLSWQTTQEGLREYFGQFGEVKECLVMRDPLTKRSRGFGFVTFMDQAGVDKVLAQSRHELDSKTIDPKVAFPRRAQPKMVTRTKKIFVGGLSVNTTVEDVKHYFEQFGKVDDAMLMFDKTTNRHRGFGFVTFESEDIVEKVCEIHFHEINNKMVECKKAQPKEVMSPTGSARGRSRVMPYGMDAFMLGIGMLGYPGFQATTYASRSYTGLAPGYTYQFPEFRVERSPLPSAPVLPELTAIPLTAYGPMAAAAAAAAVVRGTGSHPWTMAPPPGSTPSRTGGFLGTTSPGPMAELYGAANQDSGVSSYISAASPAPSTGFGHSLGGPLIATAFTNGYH
ASSAY PROCEDURE: nsRBNS (natural sequence RNA bind-n-seq); RBNS binding buffer (assumed for nsRBNS): 25 mM Tris pH 7.5, 150 mM KCl, 3 mM MgCl2, 0.01% Triton X-100, 500 ug/ml BSA, 20 U/ml SUPERase-In, 4 C; UNK is unkempt and MSI1 is Musashi-1; names of the RNAs are library labels; protein concentration not given here; high values mean tight binding
Over roughly 5,800 sequences, “enrichment r” has its median near 0.54; the highest 2% begin near 16. The list comes from a sample in which the highest values are over-represented; it also holds close analogues and randomly drawn sequences.
Label MET when binding signal is strictly below 0.5 enrichment R; otherwise label NOT MET.

Solved cases below.
>>> class_assignment("chr1:152032676:152032810:-|CDS|ENSG00000163191|unk|FALSE|unique (ssRNA) RNA: GGGAGUUCUACAGUCCGACGAUCGGACCCUGGUGUCCUUGACCGCAUGAUGAAGAAACUGGACACCAACAGUGAUGGUCAGCUAGAUUUCUCAGAAUUUCUUAAUCUGAUUGGUGGCCUAGCUAUGGCUUGCCAUGACUCCUUCAACAGAGGAUUGAGCAUCA")
"MET"
>>> class_assignment("chr1:20742972:20743075:-|3pUTR|ENSG00000127483|unk|FALSE|unique (ssRNA) RNA: GGGAGUUCUACAGUCCGACGAUCUAACCCUUUCUUAUUUGUAUUUGUUUUAGUAUUGUGAAGUUGUGUUAAAUAGUACUAGCUAGAAAUACAAAUUUCUGGUUAUCAUUUCUCUUCCCUGUGGCACUUGACAUUUUAAUUGUCCAACAGAGGAUUGAGCAUCA")
"NOT MET"
>>> class_assignment("chr15:59095394:59095499:+|3pUTR|ENSG00000157450|unk|FALSE|unique (ssRNA) RNA: GGGAGUUCUACAGUCCGACGAUCUAAAUACCAUCCUUAAUACUGGGAACAGAAUACAACCCAUAUAAAUCAGAUGCAGGUGGUAGUCACAUCACCAGAGUGAUCAGUAUAAAUUUUCUUGGUGUAUCCUUUUCCUUUCAACACCAACAGAGGAUUGAGCAUCA")
"NOT MET"
>>> class_assignment("chr3:48857559:48857660:-|3pUTR|ENSG00000178537|unk|total|mutant (ssRNA) RNA: GGGAGUUCUACAGUCCGACGAUCGGCUGAAGGCUGCUCAAGUUCACUUCUGGAUGCUGGAAGCUGUCGUUGAGGAGAAGGAGCCGUAAGCAGAACUAAGCAGUCUUGGAGGGCAAGGGGAGGGGAAUGGUGAGAUCCGAGCCCCAACAGAGGAUUGAGCAUCA")
"NOT MET"
>>> class_assignment("chr10:32033860:32033975:-|CDS|ENSG00000170759|unk|total|mutant (ssRNA) RNA: GGGAGUUCUACAGUCCGACGAUCCACAGUGGAUAAAGAUAUUACUCUUACCAAUGAUAAACCAGCAACCGCAAUUGGAGUUACCGGAAAUUUUACUGAUGCUGAAAGAAGAAAGUGUGAAGAAGAAAUUGCUAAAUUAUACAACAACAGAGGAUUGAGCAUCA")
"NOT MET"
>>> class_assignment("chrX:21994482:21994713:+|3pUTR|ENSG00000102172|msi1|total|mutant (ssRNA) RNA: GGGAGUUCUACAGUCCGACGAUCCAGCUGAAGGAUGGUCCGACAGCACAGCGAAGACUGCUAAAUGCACUGACCCCCCCCAUCCGAAUGUGAUUUUUGUUCCUUUUUAUUUCUCUGUGGGCUUUUGUUUUUGUUUUUGUUUUGCAACAGAGGAUUGAGCAUCA")
"NOT MET"
>>> class_assignment("ENSG00000145990:stop:overlap|stop_codon|ENSG00000145990|stop_codon|NA|stop_codon (ssRNA) RNA: GGGAGUUCUACAGUCCGACGAUCUGAGCCCCGCCUACCUGAUCAGCGAGGCCAUGCGCCGCAGCAGGAUGUCCCUCUACUGUUAGCACAGAUUGAGAACCUCGGGGACUUGAGCCUUCUGCAGGGGAUGUCCACAGAGAGGGACAACAGAGGAUUGAGCAUCA")
"MET"
>>> class_assignment("chr11:46383557:46383658:+|3pUTR|ENSG00000110492|msi1_unk|FALSE|overlapping (ssRNA) RNA: GGGAGUUCUACAGUCCGACGAUCCCACGCCCUCCCUCUCCCAGGCCCGAGAUGUGACCCACCAGUGCCUUCUGUCUGCUCGUUAGCUUUAAUCAAUCAUGCCCUGCCUUGUCCCUCUCACUCCCCAGCCCCACCCCUAAGUGCCAACAGAGGAUUGAGCAUCA")
"NOT MET"

## Task # strict comparison: is reported binding signal < 0.5 enrichment R? input = chr7:123541454:123541562:-|3pUTR|ENSG00000128609|unk|total|mutant (ssRNA) RNA: GGGAGUUCUACAGUCCGACGAUCUCCACCGUGUCAUUUUAUUUCCGUCAUUAUUGAAUUAUACCAUUUACUCUGUUUUCUUACCGUCUUAAUUUUAUUAUAUUUUGUUGUUACUGUAUUAUAUUUGAAAACCUUCAAAUCCGACAACAGAGGAUUGAGCAUCA
## Result NOT MET

## Task And the next one, chr1:6522505:6522606:-|3pUTR|ENSG00000162408|msi1|FALSE|unique (ssRNA) RNA: GGGAGUUCUACAGUCCGACGAUCCUGGGAUUACAGGCGUGAGCCACUGCGCCUGGCCUGAAGCUAUUCUUUACAAAAGCUCUUAGUUUUUGUUUGUUUGUUUGUUUUUUUCUUUUGCGACGGACUCUCUGUCGCCAAGGCUGGCAACAGAGGAUUGAGCAUCA ?
## Result MET

## Task Thanks! And chr9:34635388:34635489:-|3pUTR|ENSG00000147955|msi1|FALSE|unique (ssRNA) RNA: GGGAGUUCUACAGUCCGACGAUCGGGAUAUCCAUGCUUAUGUAUCCAAACACAGAGACCCAUGGGAACAAAUGAGACACAUAUAGAUACUGAGACCUGUGUGUACAGUAGGACCAUGCACUCACACCCAUCUGGAGAGGGAGCCAACAGAGGAUUGAGCAUCA ?
## Result NOT MET

## Task Same question, chr19:7961171:7961272:-|3pUTR|ENSG00000066044|msi1|FALSE|unique (ssRNA) RNA: GGGAGUUCUACAGUCCGACGAUCGGCGGGAUUCCCGCUUCUGAAACUCCCCCUGGAGUCUCACUCCCACACAUGCCCAUAGCUAGCAUUCAACAGAGAACUCUGUCUUAAGCUUCAACUGUGAAAAUGAUGACGGGCUUGUAGCAACAGAGGAUUGAGCAUCA this time
## Result MET
